From: patent US4820701A

test system: E. coli JT 425
Where a name gives a salt, the structure may show the parent alone.
Recorded MIC for the following compounds
Lab book: enter the figure in µg/mL, no units written.

compound: CCN1CCN(C(=O)N[C@@H](C(=O)N[C@@H]2C(=O)N3[C@@H]2SC(C)(C)[C@@H]3C(=O)O)c2ccccc2)C(=O)C1=O [Piperacillin, sodium salt, reference compound]
subject_of_test: E. coli JT 425
MIC [µg/mL]: 16
--
compound: CCN1CCN(C(=O)N[C@@H](C(=O)N[C@]2(NC=O)C(=O)N3[C@@H](C(=O)O)[C@](C)(COC(=O)c4ccc(OC(C)=O)c(OC(C)=O)c4)S[C@@H]32)c2ccccc2)C(=O)C1=O
subject_of_test: E. coli JT 425
MIC [µg/mL]: 0.5
--
compound: CCN1CCN(C(=O)N[C@@H](C(=O)N[C@]2(NC=O)C(=O)N3[C@@H](C(=O)O)C(C)(C)S[C@@H]32)c2ccccc2)C(=O)C1=O [Compound A, sodium salt, reference compound]
subject_of_test: E. coli JT 425
MIC [µg/mL]: 8

### Prompt Under E. coli JT 425: MIC value of CCN1CCN(C(=O)N[C@@H](C(=O)N[C@@H]2C(=O)N3[C@@H]2S[C@@](C)(COC(=O)c2ccc(OC(C)=O)c(OC(C)=O)c2)[C@@H]3C(=O)O)c2ccccc2)C(=O)C1=O ?
### Response 1

### Prompt Recorded MIC for CCN1CCN(C(=O)N[C@@H](C(=O)N[C@]2(NC=O)C(=O)N3[C@@H](C(=O)O)[C@](C)(COC(=O)c4ccc(O)c(O)c4)S[C@@H]32)c2ccccc2)C(=O)C1=O with E. coli JT 425, please?
### Response 0.5

---

Attribute: MIC
System: E. coli DC RTEM
Test: MIC by serial dilution in agar
Type: cell-based
Conditions: Escherichia coli
Description: Minimum Inhibitory concentration (MIC) values of compounds of the invention against E. coli JT425 and DC RTEM, K. Pneumoniae T767 and P. aeruginosa 10662 and K79961. were determined by serial dilution in Iso-sensitest Agar (from Oxoid Ltd., Basingstoke, England). The plates were inoculated with 10^4 colony forming units and incubated overnight at 37° C. The MIC values recorded in Table 1 were the lowest concentration of antibiotic to inhibit growth. […]
Where a name gives a salt, the structure may show the parent alone.
Express it in µg/mL; write the number only.

Some solved cases for reference:
molecule: CCN1CCN(C(=O)N[C@@H](C(=O)N[C@]2(NC=O)C(=O)N3[C@@H](C(=O)O)C(C)(C)S[C@@H]32)c2ccccc2)C(=O)C1=O [Compound A, sodium salt, reference compound]
value_unit: µg/mL
MIC: 4
--
molecule: CCN1CCN(C(=O)N[C@@H](C(=O)N[C@]2(NC=O)C(=O)N3[C@@H](C(=O)O)[C@](C)(COC(=O)c4ccc(OC(C)=O)c(OC(C)=O)c4)S[C@@H]32)c2ccccc2)C(=O)C1=O
value_unit: µg/mL
MIC: 0.12

# context switch: different molecule, same MIC
### Prompt # get_value(readout='MIC', item= CCN1CCN(C(=O)N[C@@H](C(=O)N[C@@H]2C(=O)N3[C@@H]2S[C@@](C)(COC(=O)c2ccc(OC(C)=O)c(OC(C)=O)c2)[C@@H]3C(=O)O)c2ccccc2)C(=O)C1=O )
### Response 4
